- assay.summary: chemical genetic growth profiling, strain panel (AID 1159580);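 also: tested at 20 µM; growth read once vehicle control cultures reached saturation at 30 °C; 1 = growth at the plate median or of vehicle wells; lower values mean less growth of the strain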
- assay.conditions: S. cerevisiae deletion strains, growth OD, locus YNL248C, strain rpa49
Out of some 5,500 compounds screened, about 2,000 (36%) were called active. Not shown: some 18% with an inconclusive outcome. Rule as the data show it: active = normalized growth mostly below about 0.91 (no sharp cut-off); inconclusive = no clear call, values can overlap the other calls; inactive = mostly above about 0.92. The list shows a part of the results.
Choose the fitting class; nothing outside YES (active), NO (inactive) is accepted.

QUERY: Could you check what this test reported for `C=CCCCCCCCCCCCc1ccco1` ?
RESULT: YES

QUERY: Could you check what this test reported for `O=S(=O)(O)CCS` ?
RESULT: NO

QUERY: Could you check what this test reported for `NCCc1cnc[nH]1` ?
RESULT: NO

QUERY: Could you check what this test reported for `CN(C)CCN(Cc1cccs1)c1ccccn1` ?
RESULT: NO

QUERY: Could you check what this test reported for `CN(C)CCN(Cc1ccccc1)c1ccccn1` ?
RESULT: NO

QUERY: Could you check what this test reported for `COc1ccc(CN(CCN(C)C)c2ccccn2)cc1` ?
RESULT: NO

QUERY: Could you check what this test reported for `Nc1ncn[nH]1` ?
RESULT: NO

QUERY: Could you check what this test reported for `CCCCCCCCCCC[C@@H](C[C@H]1OC(=O)[C@H]1CCCCCC)OC(=O)[C@@H](CC(C)C)NC=O` ?
RESULT: NO

QUERY: Could you check what this test reported for C=CC[C@]1(O)CCC2C3CCC4=CC(=O)CCC4=C3C=C[C@@]21C (stereo partly drawn) ?
RESULT: NO

QUERY: Could you check what this test reported for c1ccc2c(c1)CCCC2C1=NCCN1 (stereo not drawn) ?
RESULT: NO

QUERY: Could you check what this test reported for C=C1C2CC[C@@]3(C)[C@H](c4ccoc4)OC(=O)C[C@]13O[C@H]1CC(=O)C(C)(C)[C@H](C(OC(C)=O)C(=O)OC)[C@@]21C (stereo partly drawn) ?
RESULT: NO

QUERY: Could you check what this test reported for COc1cc([C@@H]2c3cc4c(cc3C(OC3O[C@@H]5COC(C)O[C@H]5[C@H](O)[C@H]3O)C3COC(=O)[C@@H]32)OCO4)cc(OC)c1O (stereo partly drawn) ?
RESULT: NO

QUERY: Could you check what this test reported for `C#CCCCCCCCCCCCc1ccco1` ?
RESULT: NO

----------
- assay.summary: chemical genetic growth profiling, strain panel (AID 1159580);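 also: tested at 20 µM; growth read once vehicle control cultures reached saturation at 30 °C; 1 = growth at the plate median or of vehicle wells; lower values mean less growth of the strain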
- assay.conditions: S. cerevisiae deletion strains, growth OD, locus YNL183C, strain NPR1, hits give low values
In all, about 5,500 compounds went through this assay and about 2,000 (36%) were called active. Not shown: some 18% with an inconclusive outcome. The list shows a part of the results.
parameter.measured: normalized growth

// `CC(C)c1ccc(COC(=O)Nc2ccc(CSc3ccc(Cl)cc3)o2)cc1` : normalized growth value = 0.995 (inactive)

// C[C@@H]1CC(Cl)CC[C@H]1C(=O)OC(C)(C)C (stereo partly specified) : normalized growth value = 0.948 (inactive)

// `O=C(O[C@@H]1Cc2c(O)cc(O)cc2O[C@@H]1c1ccc(O)c(O)c1)c1cc(O)c(O)c(O)c1` : normalized growth value = 0.938 (inactive)

// c1ccc2c(c1)CCCC2C1=NCCN1 (stereo unspecified) : normalized growth value = 0.953 (inactive)

// `O=C(O[C@@H]1Cc2c(O)cc(O)cc2O[C@@H]1c1cc(O)c(O)c(O)c1)c1cc(O)c(O)c(O)c1` : normalized growth value = 0.968 (inactive)

// `Cc1ccc(Nc2ccnc3cc(Cl)ccc23)cc1F` : normalized growth value = 0.936 (inactive)
